Record form. Attribute: pIC50. Fill in for each entry.
Assay: Inhibitory concentration against Beta Glucosidase from Almonds
Set-up: species or system Prunus dulcis
Please note pIC50 is a logarithmic value: minus log10 of concentration in mol/L. Answer with that number alone.

# lookup: pIC50 of OC1C=CC(NCc2ccc(Oc3ccccc3)cc2)C(O)C1O (stereo in doubt; 4j)
4.37

pIC50 lookup needed for CCCNC1C=CC(O)C(O)C1O (racemic) , thanks.
4.18

If you can, please state the reported pIC50 value of COc1ccc(CNC2C=CC(O)C(O)C2O)cc1 (stereo in doubt; 4g) .
4.28

GET /values?readout=pIC50&item= OC1C=CC(NCCc2ccccc2)C(O)C1O (racemic)
4.49

What value of pIC50 has been reported for the following compound? OC1C=CC(NCc2ccc(-c3ccccc3)cc2)C(O)C1O (stereo in doubt; 4i)
4.49

So what's the measured pIC50 for this one? CCCCCCNC1C=CC(O)C(O)C1O (racemic)
4.49

Dear colleague, I am looking for the recorded pIC50 of the following compound: Oc1ccc(CNC2C=CC(O)C(O)C2O)cc1 (stereo in doubt; 4f)
4.14

Can you look up the measured pIC50 of OC1C=CC(NCc2ccc(Cl)cc2)C(O)C1O (stereo in doubt; 4h) for me?
4.46

Field request: pIC50 | item: OC1C=CC(NCc2ccccc2)C(O)C1O (stereo in doubt; 4e)
4.49

###

Target: UniProt:P10482
Assay: Inhibitory concentration against Beta Glucosidase Caldocellum saccharolyticum
experimental_readout: IC50 (µM)
Reply with just the number (in µM).

Suppose we examine the molecule OC1C=CC(NCc2ccc(-c3ccccc3)cc2)C(O)C1O (stereo in doubt; 4i) ; what IC50 value has been reported?
35

###

Test system: Prunus dulcis
Assay: Inhibition against Beta Glucosidase from Almonds at 1 mM; (ni=no inhibition)
Activity calls are given as the source filed them. The rule behind the calls is not given here.
experimental_readout: inhibition

The following compounds have reported results that may help.
Request body: readout inhibition, system Prunus dulcis, query NC1C=CC(O)C(O)C1O (stereo in doubt; (+)-3) . Return the value.
inactive

Reported inhibition for Prunus dulcis, given OC1C=CC(NCc2ccc(Oc3ccccc3)cc2)C(O)C1O (stereo in doubt) ?
inactive

Which measured inhibition belongs to COc1cc(O)c(CNC2C=CC(O)C(O)C2O)c(Br)c1 (stereo in doubt; 4l) , tested on Prunus dulcis?
inactive

Param readout= inhibition; system= Prunus dulcis; entry= CCCCCCCCN(CCCCCCCC)C1C=CC(O)C(O)C1O (racemic) ; returns value.
inactive

Can you look up inhibition on Prunus dulcis for NC1C=CC(O)C(O)C1O (single isomer, unassigned; (-)) ?
inactive

Give inhibition (Prunus dulcis) of the following compound: COc1cc(O)c(CNC2C=CC(O)C(O)C2O)c(Br)c1 (single isomer, unassigned)
inactive

Next:
API: value(readout=inhibition, system=Prunus dulcis) for record Oc1ccccc1CNC1C=CC(O)C(O)C1O (stereo in doubt)
inactive

For Prunus dulcis, provide inhibition of Oc1ccccc1CNC1C=CC(O)C(O)C1O (stereo in doubt; 4k) please.
inactive

###

Target: Glucoamylase (Aspergillus niger)
Test: Percent inhibition against Amyloglucosidase from Aspergillus niger at 1 mM concentration
experimental_readout: inhibition

Data request, read-out inhibition, for OC1C=CC(NCc2ccc(Cl)cc2)C(O)C1O (stereo in doubt)
45%

So what does the record say about inhibition for Oc1ccc(CNC2C=CC(O)C(O)C2O)cc1 (stereo in doubt) ?
94%

# lookup: inhibition of COc1ccc(CNC2C=CC(O)C(O)C2O)cc1 (stereo in doubt)
63%

Data request, read-out inhibition, for Oc1ccc(CNC2C=CC(O)C(O)C2O)cc1 (stereo in doubt; 4f)
31%

What measured inhibition goes with OC1C=CC(NCc2ccccc2)C(O)C1O (stereo in doubt) ?
63%

Consider the compound Oc1ccccc1CNC1C=CC(O)C(O)C1O (stereo in doubt) and give its measured inhibition.
42%

###

Experiment: Inhibitory concentration against Beta Glucosidase Almonds
Set-up: species or system Prunus dulcis
experimental_readout: IC50

Record request: IC50 value, item CCCCCCCCNC1C=CC(O)C(O)C1O (racemic)
69 µM

###

Target: Beta-glucosidase A (Caldicellulosiruptor saccharolyticus)
Sequence (P10482 whole entry): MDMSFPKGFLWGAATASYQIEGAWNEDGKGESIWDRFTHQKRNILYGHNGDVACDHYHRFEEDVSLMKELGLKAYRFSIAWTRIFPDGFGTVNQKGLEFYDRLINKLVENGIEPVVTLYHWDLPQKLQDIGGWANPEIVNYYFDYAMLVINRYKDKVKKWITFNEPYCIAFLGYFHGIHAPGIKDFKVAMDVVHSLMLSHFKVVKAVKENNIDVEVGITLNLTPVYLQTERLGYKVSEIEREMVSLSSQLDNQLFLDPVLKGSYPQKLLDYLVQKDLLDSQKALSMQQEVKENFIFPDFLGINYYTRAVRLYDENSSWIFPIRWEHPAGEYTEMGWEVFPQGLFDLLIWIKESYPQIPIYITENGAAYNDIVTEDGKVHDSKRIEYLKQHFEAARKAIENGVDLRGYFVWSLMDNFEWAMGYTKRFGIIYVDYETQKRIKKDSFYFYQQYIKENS
Assay: Inhibitory concentration against Beta Glucosidase from Caldocellum saccharolyticum
experimental_readout: IC50 (µM)
Give just the number in µM; leave the unit off.

Dear colleague, I am looking for the recorded IC50 of the following molecule: OC1C=CC(NCc2ccc(Oc3ccccc3)cc2)C(O)C1O (stereo in doubt; 4j)
52

Quick one: IC50 of OC1C=CC(NCc2ccc(Cl)cc2)C(O)C1O (stereo in doubt; 4h) ?
185

###

Target: Glucoamylase 1 (Rhizopus oryzae) (UniProt P07683)
Sequence (P07683 whole entry): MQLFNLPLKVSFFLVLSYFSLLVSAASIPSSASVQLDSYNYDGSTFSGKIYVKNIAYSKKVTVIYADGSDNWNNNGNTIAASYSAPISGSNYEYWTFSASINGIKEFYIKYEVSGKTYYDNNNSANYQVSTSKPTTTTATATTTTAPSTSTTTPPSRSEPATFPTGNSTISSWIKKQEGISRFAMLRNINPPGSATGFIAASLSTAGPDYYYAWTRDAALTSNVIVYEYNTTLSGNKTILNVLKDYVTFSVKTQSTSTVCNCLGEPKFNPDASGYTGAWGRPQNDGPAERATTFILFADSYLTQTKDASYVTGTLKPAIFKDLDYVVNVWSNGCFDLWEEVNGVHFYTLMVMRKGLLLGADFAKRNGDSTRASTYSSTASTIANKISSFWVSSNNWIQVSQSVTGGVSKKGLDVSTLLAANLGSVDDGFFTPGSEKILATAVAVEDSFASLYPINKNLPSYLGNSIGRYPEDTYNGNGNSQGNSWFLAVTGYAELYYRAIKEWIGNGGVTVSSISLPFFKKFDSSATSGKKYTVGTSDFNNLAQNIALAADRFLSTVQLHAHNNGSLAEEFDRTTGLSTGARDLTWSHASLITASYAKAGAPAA
Experiment: Percent inhibition against Amyloglucosidase from Rhizopus mold at 1 mM
experimental_readout: inhibition (%)
Please state the figure in %; there is no need to write the unit.

Look up inhibition for this compound: Oc1ccccc1CNC1C=CC(O)C(O)C1O (stereo in doubt; 4k)
29

# inhibition lookup, item COc1ccc(CNC2C=CC(O)C(O)C2O)cc1 (stereo in doubt)
72

Which value of inhibition has been reported for Oc1ccc(CNC2C=CC(O)C(O)C2O)cc1 (stereo in doubt) in the records?
85

Consider the compound CCCNC1C=CC(O)C(O)C1O (racemic) and give its measured inhibition.
30

inhibition for Oc1ccccc1CNC1C=CC(O)C(O)C1O (stereo in doubt) ?
41

Quick check: inhibition of Oc1ccc(CNC2C=CC(O)C(O)C2O)cc1 (stereo in doubt; 4f) ?
57

# inhibition lookup, item OC1C=CC(NCc2ccccc2)C(O)C1O (stereo in doubt)
72

What does the record list as inhibition for OC1C=CC(NCc2ccc(Cl)cc2)C(O)C1O (stereo in doubt) ?
72

###

Experiment: Inhibitory activity against Beta Glucosidase from Almonds
Design: species or system Prunus dulcis
What Ki was measured for each of the following?
The figure you give is taken to be in µM; do not add the unit.

What value of Ki has been reported for the following compound? OC1C=CC(NCc2ccc(Oc3ccccc3)cc2)C(O)C1O (stereo in doubt; 4j)
13

So what does the record say about Ki for OC1C=CC(NCc2ccc(-c3ccccc3)cc2)C(O)C1O (stereo in doubt; 4i) ?
8

Which Ki is reported for this compound? COc1ccc(CNC2C=CC(O)C(O)C2O)cc1 (stereo in doubt; 4g)
25

Look up Ki: OC1C=CC(NCc2ccccc2)C(O)C1O (stereo in doubt; 4e)
10

###

Biological target: Alpha-glucosidase (Oryza sativa Japonica Group)
Test: Inhibition against Alpha Glucosidase from rice at 1 mM; (ni=no inhibition)
Activity calls are given as the source filed them. The calls are words filed in the database; no cut-off is given here.
experimental_readout: inhibition

Example cases with answers are listed next.
Form field: reported inhibition of OC1C=CC(NCc2ccc(Oc3ccccc3)cc2)C(O)C1O (stereo in doubt; 4j)
inactive

Would you mind telling me what inhibition value was observed for CCCNC1C=CC(O)C(O)C1O (racemic) ?
inactive

What measured inhibition goes with Oc1ccccc1CNC1C=CC(O)C(O)C1O (stereo in doubt) ?
inactive

Field request: inhibition | item: COc1cc(O)c(CNC2C=CC(O)C(O)C2O)c(Br)c1 (stereo in doubt; 4l)
inactive

Give its inhibition value. Item: Oc1ccccc1CNC1C=CC(O)C(O)C1O (stereo in doubt; 4k)
inactive

Request the reported inhibition associated with OC1C=CC(NCCc2ccccc2)C(O)C1O (racemic)
inactive

Please report the recorded inhibition for CCCCCCCCN(CCCCCCCC)C1C=CC(O)C(O)C1O (racemic) .
inactive

What value of inhibition has been recorded for this entry: NC1C=CC(O)C(O)C1O (stereo in doubt; (+)-3)
inactive

State the recorded inhibition for this entry: OC1C=CC(NCc2ccccc2)C(O)C1O (stereo in doubt; 4e)
inactive

Now look at this one.
Which inhibition value belongs to OC1C=CC(NCc2ccc(Oc3ccccc3)cc2)C(O)C1O (stereo in doubt) ?
inactive

###

Molecular target: UniProt:P10482
Assay: Percent inhibition against Beta Glucosidase from Caldocellum saccharolyticum at 1 mM
For each entry below, report its inhibition value.
Your reply should be a number followed by the unit it is expressed in.

Lab note: need inhibition for COc1ccc(CNC2C=CC(O)C(O)C2O)cc1 (stereo in doubt; 4g) on UniProt:P10482, anyone have it?
68%

Item: OC1C=CC(NCc2ccc(Oc3ccccc3)cc2)C(O)C1O (stereo in doubt; 4j) Test system: UniProt:P10482 Read-out: inhibition Value: ?
71%

Give UniProt:P10482 inhibition for COc1cc(O)c(CNC2C=CC(O)C(O)C2O)c(Br)c1 (stereo in doubt; 4l)
43%

Missing value: inhibition, UniProt:P10482, entry OC1C=CC(NCc2ccccc2)C(O)C1O (stereo in doubt; 4e) . Fill in?
43%

Given the entry OC1C=CC(NCc2ccc(-c3ccccc3)cc2)C(O)C1O (stereo in doubt; 4i) , what inhibition was observed with UniProt:P10482?
94%

inhibition of OC1C=CC(NCc2ccc(Cl)cc2)C(O)C1O (stereo in doubt; 4h) on UniProt:P10482?
84%

Form field: inhibition recorded for CCCCCCCCN(CCCCCCCC)C1C=CC(O)C(O)C1O (racemic) with UniProt:P10482 (enter value)
83%

Could you share what inhibition was measured for Oc1ccc(CNC2C=CC(O)C(O)C2O)cc1 (stereo in doubt; 4f) , tested on UniProt:P10482?
56%
